assay_info: Pharmacokinetic evaluation after single oral administration to ICR mice
Assay type: in vivo
assay_setup: mouse; ICR mice, single oral dose 5 mg/kg, plasma; read-out: AUC0-24
readout_kind: AUC(0-t) (ng·h/mL)
The response must be a number in ng·h/mL with no trailing unit.

Query string: Indicate its recorded AUC(0-t); the molecule in question is COc1cc(N2CCN(CC3CCN(C(=O)[C@H](C)Nc4cccc5c4C(=O)N(C4CCC(=O)NC4=O)C5=O)CC3)CC2)ccc1Nc1ncc(Cl)c(Nc2ccccc2N(C)S(C)(=O)=O)n1 (stereo partly drawn)
Result string: 598

Query string: For the molecule COc1cc(N2CCC(N3CCN(CC(=O)Nc4ccc5c(c4)CN(C4CCC(=O)NC4=O)C5=O)CC3)CC2)ccc1Nc1ncc(Cl)c(Nc2ccccc2N(C)S(C)(=O)=O)n1 (stereo not drawn) , give its reported AUC(0-t).
Result string: 134

Query string: Provide only the value of recorded AUC(0-t) for COc1cc(N2CCC(N3CCN(CCNc4cccc5c4C(=O)N(C4CCC(=O)NC4=O)C5=O)CC3)CC2)ccc1Nc1ncc(Cl)c(Nc2ccccc2N(C)S(C)(=O)=O)n1 (stereo not drawn)
Result string: 992

Where do these numbers come from? They come from patent US20230322723A1.
